TARGET_UNDER_TEST: ErbB4 on neonatal rat cardiomyocytes (rat) (UniProt Q62956)
Sequence (Q62956 26-1308): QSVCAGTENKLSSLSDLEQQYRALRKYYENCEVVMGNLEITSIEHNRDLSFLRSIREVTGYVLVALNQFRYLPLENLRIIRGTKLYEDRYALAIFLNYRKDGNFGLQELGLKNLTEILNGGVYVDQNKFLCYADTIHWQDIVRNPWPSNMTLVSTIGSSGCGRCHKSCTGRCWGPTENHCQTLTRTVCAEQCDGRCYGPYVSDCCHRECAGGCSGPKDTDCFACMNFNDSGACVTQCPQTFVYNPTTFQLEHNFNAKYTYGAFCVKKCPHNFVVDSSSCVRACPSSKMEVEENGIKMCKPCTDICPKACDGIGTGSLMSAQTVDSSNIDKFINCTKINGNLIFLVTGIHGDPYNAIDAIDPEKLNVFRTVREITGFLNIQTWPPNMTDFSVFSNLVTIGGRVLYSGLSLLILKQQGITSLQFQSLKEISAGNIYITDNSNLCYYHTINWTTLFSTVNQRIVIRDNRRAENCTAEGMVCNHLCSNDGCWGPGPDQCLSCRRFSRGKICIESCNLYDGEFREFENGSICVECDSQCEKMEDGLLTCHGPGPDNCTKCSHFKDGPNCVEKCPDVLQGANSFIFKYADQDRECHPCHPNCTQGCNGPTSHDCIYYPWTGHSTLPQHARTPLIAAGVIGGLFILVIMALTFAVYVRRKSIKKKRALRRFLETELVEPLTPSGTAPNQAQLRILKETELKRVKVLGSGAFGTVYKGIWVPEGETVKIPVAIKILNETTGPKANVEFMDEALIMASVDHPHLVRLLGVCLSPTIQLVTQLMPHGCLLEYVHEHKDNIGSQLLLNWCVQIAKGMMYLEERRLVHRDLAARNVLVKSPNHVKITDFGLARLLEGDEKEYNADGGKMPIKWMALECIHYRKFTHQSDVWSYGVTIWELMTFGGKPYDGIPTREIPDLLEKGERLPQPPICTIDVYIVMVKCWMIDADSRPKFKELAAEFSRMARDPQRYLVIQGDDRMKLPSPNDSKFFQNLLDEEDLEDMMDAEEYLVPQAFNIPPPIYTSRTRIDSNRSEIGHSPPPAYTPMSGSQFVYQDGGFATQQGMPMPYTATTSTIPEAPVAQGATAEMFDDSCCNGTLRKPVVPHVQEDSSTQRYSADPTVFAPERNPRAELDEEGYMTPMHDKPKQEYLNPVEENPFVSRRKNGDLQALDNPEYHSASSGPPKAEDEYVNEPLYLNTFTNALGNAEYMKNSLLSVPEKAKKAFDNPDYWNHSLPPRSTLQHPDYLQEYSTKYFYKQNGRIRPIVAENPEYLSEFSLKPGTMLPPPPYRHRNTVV
ASSAY_REMARKS: cell-based or functional assay
CM % Agonism AVG below 80% gives n; CM % Agonism AVG at or above it gives y.

{"BINDER": "huNRG1(S177-F229)(NRGE1D) 6xHis (ligand) SHLVKCGESHKSFCVNGGECYMVEGSSIPSRYLCKCPNEFTGDRCQEDFMASFGGGGEGGGGAGGGGHHHHHH", "ASSIGNED_LABEL": "y"}

*Q* Is CM % Agonism AVG for huNRG1(S177-Q237)(3E9)::GG::huFcSEFL2 (Pb) (Fc fusion) SHLVKCAENHKTFCVNGGECFVIEGSSNPSRYLCKCPNEFTGDRCQDVFLASFYKAEELYQGGDKTHTCPPCPAPELLGGPSVFLFPPKPKDTLMISRTPEVTCVVVDVSHEDPEVKFNWYVDGVEVHNAKTKPCEEQYGSTYRCVSVLTVLHQDWLNGKEYKCKVSNKALPAPIEKTISKAKGQPREPQVYTLPPSREEMTKNQVSLTCLVKGFYPSDIAVEWESNGQPENNYKTTPPVLDSDGSFFLYSKLTVDKSRWQQGNVFSCSVMHEALHNHYTQKSLSLSPGK at or above 80%?
*A* n

*Q* Is the recorded value of CM % Agonism AVG equal to or greater than 80% for this binder? huNRG1(S177-Q237)(1B9)::GG::huFcSEFL2 (Pb) (Fc fusion) SHLVKCAEKHKSFCVNGGECFMVEDLSIPSRYLCKCPNEFTGDRCQDVFMASFYKAEELYQGGDKTHTCPPCPAPELLGGPSVFLFPPKPKDTLMISRTPEVTCVVVDVSHEDPEVKFNWYVDGVEVHNAKTKPCEEQYGSTYRCVSVLTVLHQDWLNGKEYKCKVSNKALPAPIEKTISKAKGQPREPQVYTLPPSREEMTKNQVSLTCLVKGFYPSDIAVEWESNGQPENNYKTTPPVLDSDGSFFLYSKLTVDKSRWQQGNVFSCSVMHEALHNHYTQKSLSLSPGK
*A* n
